Target: T1, human CD25 (NP_000408.1) (Met 1-Cys 213) C-terminally fused with 6-histidine tag (human, UniProt P01589 22-213)
T1 construct: range 1-213; Expressed in CHO-K1 cells; also called human CD25-his
T1 sequence: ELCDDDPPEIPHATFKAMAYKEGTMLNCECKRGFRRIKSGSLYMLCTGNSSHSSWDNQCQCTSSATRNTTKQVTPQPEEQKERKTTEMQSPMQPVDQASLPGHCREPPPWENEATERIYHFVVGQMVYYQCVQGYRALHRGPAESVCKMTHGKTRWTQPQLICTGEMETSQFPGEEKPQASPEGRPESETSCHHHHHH
Assay: SPR (BIAcore X100), human CD25-his captured by anti-histidine antibody, antibody as analyte, 1:1 model
measurementKind: Kd (nM)

>>> endpointvalue("humanized antibody 2047-3H1L2 (antibody, human IgG1, kappa, V domains shown) VH: EVQLVQSGAEVKKPGATVKISCKTSGYTFTDYVISWVQQAPGKGLEWMGEIYPGSGSTYYNEKFKGRVTITADISTNTAYMELSSLRSEDTAVYYCASINFDYWGQGTLVTVSS VL: EIVMTQSPATLSLSPGERATLSCRASQSISDYLHWYQQKPGQAPRLLIKYASQSISGIPARFSGSGSGSDFTLTISSLQPEDVAVYYCQSGHSFPYTFGQGTKLEIKR")
1.43
